pIC50: −log10 of the molar value.
Literature-derived pIC50 for Tyrosine-protein kinase JAK2 (Homo sapiens) follows.

Previously resolved entries follow.
- COCCOCCO[C@H]1CNc2cc(Nc3ncc(C(N)=O)c(NC4CC4)n3)ccc2OC1: 7.00 to 8.00
- Cc1cc(NC(=O)N2CCC(N3CC(CC#N)(n4cc(-c5ncnc6[nH]ccc56)cn4)C3)CC2)n(C)n1: 7.30 to 8.00
- Cn1cc(-c2cc3nccn3c(-c3cnn(C(CC#N)C4CC4)c3)n2)cn1 (single isomer, unassigned; enantiomer 2): 7.00 to 8.00
- CN(c1ncnc2[nH]ccc12)N1CCCC(C(N)=O)C1 (stereo not shown): 6.00 to 7.00

Data request: Tyrosine-protein kinase JAK2 (Homo sapiens) / pIC50 / CC(=O)N1CCN(C(=O)c2ccc(Nc3nccc(-c4cnn(C(CC#N)C5CC5)c4)n3)cc2)CC1 (racemic) : value?
Data returned: > 7.00

Data request: Tyrosine-protein kinase JAK2 (Homo sapiens) / pIC50 / COc1cc(Nc2ncnc(-c3ccc(O[C@H]4CCN(C(=O)CO)CC4(F)F)c(C#N)c3)n2)ccc1N1CCN(C2COC2)CC1 : value?
Data returned: 7.74

Data request: Tyrosine-protein kinase JAK2 (Homo sapiens) / pIC50 / COC(=O)N1CCC2(CCC(N(C)c3ncnc4[nH]ccc34)CC2)CC1 : value?
Data returned: 6.00 to 7.00
